Overview of recorded Vd for various compounds
Assay: in vivo
Conditions: marmoset, in vivo, iv, 10 mg/kg, Vd (L/kg), prodrug, 11 min infusion, N=3, average
Field format: number, assumed L/kg, no unit text.

compound	result.units	value
CCc1c2c(nc3ccc(O[C@@H]4O[C@H](CO)[C@H](O)[C@H](O)[C@H]4O)cc13)-c1cc3c(c(=O)n1C2)COC(=O)[C@]3(O)CC	L/kg	0.215

Ask: Look up Vd for this compound: CCc1c2c(nc3ccc(O[C@@H]4O[C@H](CO)[C@@H](O)[C@H](O)[C@H]4NC(C)=O)cc13)-c1cc3c(c(=O)n1C2)COC(=O)[C@]3(O)CC
Reply: 0.142

====

Experiment: in vivo
Conditions: marmoset, in vivo, iv, 10 mg/kg, AUC0- (μg・h/mL), prodrug; 10 mg/kg i.v.; individual marmosets
quantity.name: AUC (ng·h/mL)
Give your result in ng·h/mL as a bare value.

Ask: I'd like to know its AUC. The molecule in question is CCc1c2c(nc3ccc(O[C@@H]4O[C@H](CO)[C@@H](O)[C@H](O)[C@H]4NC(C)=O)cc13)-c1cc3c(c(=O)n1C2)COC(=O)[C@]3(O)CC
Reply: 73800

====

Experiment: Kinetic test in intraperitoneal administration
Assay type: in vivo, Mice
Conditions: mouse, in vivo, ip; 30 mg/kg i.p.; read-out: t1/2 (converted)
Source text: […]
quantity.name: half-life (min)
Answer with a number only, understood to be in min.

Ask: Item under review: CCc1c2c(nc3ccc(O[C@@H]4O[C@H](CO)[C@H](O)[C@H](O)[C@H]4O)cc13)-c1cc3c(c(=O)n1C2)COC(=O)[C@]3(O)CC [SN38-βGal] . Reported half-life?
Reply: 11.8

====

Test: in vivo
Conditions: marmoset, in vivo, iv, 10 mg/kg, CLtot (mL/min/kg), prodrug, 11 min infusion, N=3, average
quantity.name: clearance (mL/min/kg)
Output spec: scalar in mL/min/kg, unitless text.

compound	result.units	value
CCc1c2c(nc3ccc(O[C@@H]4O[C@H](CO)[C@H](O)[C@H](O)[C@H]4O)cc13)-c1cc3c(c(=O)n1C2)COC(=O)[C@]3(O)CC	mL/min/kg	3.5

Kindly consider the entry below.
Ask: // query clearance value for entry CCc1c2c(nc3ccc(O[C@@H]4O[C@H](CO)[C@@H](O)[C@H](O)[C@H]4NC(C)=O)cc13)-c1cc3c(c(=O)n1C2)COC(=O)[C@]3(O)CC
Reply: 2.2

====

Test: Kinetic test in intraperitoneal administration
Type: in vivo, Mice
Details: mouse, in vivo, ip; 30 mg/kg i.p.
quantity.name: AUC(0-inf) (ng·h/mL)
Hi! Could you send only the number? It should be in ng·h/mL, unit omitted.

Ask: Entry CCc1c2c(nc3ccc(O[C@@H]4O[C@H](CO)[C@H](O)[C@H](O)[C@H]4O)cc13)-c1cc3c(c(=O)n1C2)COC(=O)[C@]3(O)CC : reported AUC(0-inf) = ?
Reply: 15900

====

Assay: in vivo
Conditions: marmoset, in vivo, iv, 10 mg/kg, blood half-life, prodrug; 10 mg/kg i.v., 11 minutes infusion
Each entry below carries its recorded half-life.
Numeric answer only, unit min assumed.

Ask: Recorded half-life for CCc1c2c(nc3ccc(O[C@@H]4O[C@H](CO)[C@@H](O)[C@H](O)[C@H]4NC(C)=O)cc13)-c1cc3c(c(=O)n1C2)COC(=O)[C@]3(O)CC [SN38-βGlcNAc] , please?
Reply: 47.6

Ask: Record: CCc1c2c(nc3ccc(O[C@@H]4O[C@H](CO)[C@H](O)[C@H](O)[C@H]4O)cc13)-c1cc3c(c(=O)n1C2)COC(=O)[C@]3(O)CC [SN38-βGal]
Reply: 58.3
